Test system: HOP-18
Assay: NCI tumour cell line growth inhibition, 48 h
Active and inactive are the calls of the source. Cut-off read from the data, not from the text of the source: active = GI50 up to about 1.1 µM and inactive = higher.
Write down the outcome that applies. Available outcomes: label 1 for active, label 0 for inactive

GET /call?item= COc1ccc(C2S/C(=C\c3cccc([N+](=O)[O-])c3)C(=O)N2NC(=O)Cc2ccccc2)cc1 (stereo not given) returns the recorded outcome of this test. label 0

In this assay, the call recorded for CCOC(=O)NC(=O)c1cn(CCN2CCN(C(=O)CCCCCCCCCCNc3ncnc4[nH]cnc34)CC2)c(=O)[nH]c1=O was what? label 0

Answer briefly: the call reported for COc1cc(/C=C2/C(=O)N(C(=O)OCC(C)C)C(Cc3cc(OC)c(OC)c(C)c3OC)C(=O)N2Cc2ccccc2)c(OC)c(C)c1OC (stereo not given) in this assay. label 0

GET /call?item= CN1NC(c2ccccc2)=C(C#N)C(=O)CC1c1ccc(F)cc1 (stereo not given) returns the recorded outcome of this test. label 0

Answer briefly: the call reported for Cc1ccc(C)c(NC(=O)C(=O)CC(=O)c2cccc3ccccc23)c1 in this assay. label 0

Outcome logged for Cc1cc(N(CCC#N)S(=O)(=O)c2ccccc2)ccc1C=O in this assay: label 0

Dear all, I need the recorded test outcome for CC(NC(=O)C(=O)N/N=C1\C[C@@H](c2ccccc2)Nc2ccccc21)c1ccccc1 (stereo not given in full) , thank you. label 1

In this assay, the call recorded for CC(=O)Nc1ccc(-c2nnc(SCC(=O)Nc3ccccc3[N+](=O)[O-])o2)cc1 was what? label 0

Per the records of this test, what outcome belongs to COc1cc(/C=C/C(=O)c2sc(Nc3ccccc3)nc2C)ccc1O ? label 0

Query: recorded result category for CC(=O)O[C@]1(C)OC(=O)[C@@H](CC(C)C)N1[N+](=O)[O-] in this test label 0

Please let me know the test result on file for COC1(OC)c2ccccc2C2(O)c3ccccc3C(=O)C12 (stereo not given) . label 0

Lab log entry: CCCCCCCCCCCCC/C=C1\C[C@H](O)COC1=O — outcome as called in the assay? label 0

Given C1CCOC2(CCC3(CC2)OCCCCO3)OC1 , state the outcome it received in this test. label 0

What is the recorded call for this molecule in the test? O=C(O)CC/C(=N\Nc1nsc2ccccc12)c1ccc(Cl)cc1 label 0

Hi, do you know how CCCCCCCCCCCCCCCCCC(=O)NCC(COP(=O)([O-])OCC[N+](C)(C)C)OC (stereo not given) came out in this test? label 0

I'd appreciate the recorded outcome for CCOc1ccc(C(C)c2cc3c(cc2OC)OCO3)cc1 (stereo not given) from this test. label 0

For [O-]/[N+](=C\c1ccccc1)[C@H](COCc1ccccc1)c1ccccc1 , what call appears in the results of this test? label 0

Outcome logged for COC(=O)[C@@]1(O)CC(C)C=C1C=O (stereo not given in full) in this assay: label 0

Could you check what this test reported for CSC(=S)N/N=C/c1nccc2ccccc12 ? label 0

Please let me know the test result on file for O=c1c(C(c2ccc([N+](=O)[O-])cc2)c2c(O)c3ccccc3n(-c3ccccc3)c2=O)c(O)c2ccccc2n1-c1ccccc1 . label 0

Which outcome did this test record for the molecule CN(C)CCNC(=O)c1cccc2nc3c(Cl)cccc3nc12 ? label 0

Recorded call for CC1=C(/C(C)=N/NC(=O)C(N)=O)Sc2ccccc2N1 ? label 0

Please share the test call associated with COC(=O)C1=C(C(=O)OC)C2C=CC1C1C(Cl)=C(Cl)C21 (stereo not given) . label 0

Query: recorded result category for COc1cc2cc(OC)c3cc4c(cc3c2c(OC)c1OC)OCO4 in this test label 0

For C[C@]12CCC3[C@@H](CC[C@@H]4c5nonc5CC[C@]34C)C1CCC(=O)N2 (stereo not given in full) , which call appears in the assay record? label 0

Test call, this molecule: [O-][S+]1Nc2cccc(C(F)(F)F)c2S1 (stereo not given) label 0

For this molecule, state the assay outcome: O=P1(NCCCl)OCCCN1CCCl (stereo not given) [IFOSFAMIDE] label 0

Hey, what did the test say about C[N+](C)(C)CC1CCC(C[N+](C)(C)C)C1=O (stereo not given) ? label 1

GET /call?item= CC1C=CC(C)C2(O)C(=O)NC(O)C12 (stereo not given) returns the recorded outcome of this test. label 0

Kindly provide the recorded test outcome for the following molecule: COc1ccc(/C=C/C(=O)C(C)(C)CN2CCCCC2)cc1 label 0

* * *

Task for the reader: assign each of the following compounds its reported GI50.
Test system: NCI-H460
Assay: NCI tumour cell line growth inhibition, 48 h
Calls of active or inactive are those of the source. Cut-off read from the data, not from the text of the source: active = GI50 up to about 1.1 µM and inactive = higher.

Please indicate GI50 recorded for O=C1NC(N/N=C/c2ccccc2)=N/C1=C\c1ccco1 20.7 µM (inactive)

Quote GI50 reported for CCOC(=O)c1ccc(NC(NC(=O)CC)(C(F)(F)F)C(F)(F)F)cc1 please. > 100 µM (inactive)

Item CC(=O)Nc1ccc2nc(N)n[n+]([O-])c2c1 : provide GI50 > 100 µM (inactive)

Hello, please tell me recorded GI50 for this one: COc1ccc(S(=O)(=O)n2c3c(c4ccccc42)[C@@H]2[C@@H](CCCN2C(=O)C[S+]([O-])c2ccc(C)cc2)[C@H](Cl)C3)cc1 (stereo not given in full) > 100 µM (inactive)

Identify measured GI50 corresponding to Nc1ccc(C(=O)N/C(=C\c2ccc3c(c2)OCO3)c2nc3ccc4c(c3[nH]2)C(=O)c2ccccc2C4=O)cc1 26.4 µM (inactive)

Hello, please tell me recorded GI50 for this one: CC1CN=C(NCc2ccccc2)S1 (stereo not given) > 100 µM (inactive)

Specify GI50 for COc1ccc(C2S/C(=C\c3cccc([N+](=O)[O-])c3)C(=O)N2NC(=O)Cc2ccccc2)cc1 (stereo not given) and stop. > 100 µM (inactive)

Name the recorded GI50 of the item CCCCOC(=O)CN1C(=O)c2ccccc2C1=O in your answer. > 100 µM (inactive)

For the compound CCOC(=O)/C=C1\CCCC12OCCO2 , give its reported GI50. > 100 µM (inactive)

Output GI50 of NC(=O)c1nnsc1N/N=C/c1ccc([N+](=O)[O-])cc1 > 100 µM (inactive)

* * *

Please go through the items and note down their GI50.
Test system: M14
Experiment: NCI tumour cell line growth inhibition, 48 h
The source made the active and inactive calls. No stated cut-off is given here; in the data, active = GI50 up to about 1.1 µM and inactive = higher.

Write down GI50 measured for item CC1OC(OC2C(CO)OC(O[C@H]3CC[C@@]4(C)C(=CC[C@H]5[C@@H]6C[C@@H]7O[C@](O)(CC[C@H](CO)COC8OC(CO)C(O)C(O)C8O)[C@@H](C)[C@@H]7[C@@]6(C)CC[C@@H]54)C3)C(OC3OC(C)C(O)C(O)C3O)C2O)C(O)C(O)C1O (some centres undefined) > 100 µM (inactive)

Identify GI50 associated with the compound COc1ccc(C2CC(c3ccc4ccccc4c3O)=NN2C(C)=O)cc1OC (centres undefined) > 100 µM (inactive)

Supply GI50 value. Item: COc1cc(C(=O)C/C(CCC(=O)Nc2ccccc2[N+](=O)[O-])=N\NC(N)=O)ccc1O > 100 µM (inactive)

Give the value of GI50 reported for the following: COC(=O)CSC(=S)Nc1nnc(NC(=S)SCOC(C)=O)n1C(=S)SCC(=O)OC > 100 µM (inactive)

Assign GI50 to the following record: CC1(C)CCC[C@@]2(C)C1C(=O)[C@@H]1O[C@]1(C)[C@@H]2CO (some centres undefined) 24.4 µM (inactive)

Specify GI50 for O=C(Cn1c2c(c3ccccc31)CCCC2)N1CCCCC1 and stop. > 100 µM (inactive)

Return GI50 (reported value) for this compound: N=c1oc2ccccc2cc1C(=O)Nc1nccs1 19 µM (inactive)

In one line, give reported GI50 of the entry O=C(CSC1=NCCN1)Nc1ccccc1 . 32.9 µM (inactive)

Note down GI50 recorded for CC1(C)CCc2cc3c(-c4ccccc4)cc(=O)oc3cc2O1 > 100 µM (inactive)

* * *

System: A549
Assay: NCI tumour cell line growth inhibition, 48 h
Activity calls are given as the source filed them. No stated cut-off is given here; in the data, active = GI50 up to about 1.1 µM and inactive = higher. Where a SMILES comes first, the peptide text is derived from it. [ ]: non-standard residue; d: D form. The star is where a group is joined. ξ: configuration not given here. ξPhe(4-NO2) = NC(Cc1ccc([N+](=O)[O-])cc1)C(=O)O; Boc = CC(C)(C)OC(=O)*
measuredParameter: GI50

In one line, give reported GI50 of the entry COc1ccc2nc(-c3ccccc3)cc(OCC(=O)O)c2c1 . > 100 µM (inactive)

Find the measured GI50 of COC(=O)CCC(=O)c1ccc2c(c1)CC1(C2)Cc2ccc3c(c2C1)CCCC3=O (stereo not given) and report it. > 57 µM (inactive)

Read the entry CCOC(=O)c1c[nH]c2cc3c(cc2c1=O)CCS3 and write its reported GI50. > 100 µM (inactive)

Output GI50 of COC(=O)C1N=CSCC1(C)O (stereo not given) > 100 µM (inactive)

Answer with the recorded GI50 for the compound listed here: O=C(c1ccc(Cl)cc1)c1ccc(OCCCCCCCCCCOc2ccc(C(=O)c3ccc(Cl)cc3)cc2)cc1 > 100 µM (inactive)

Given the compound CCNC(=O)CNC(=O)C(Cc1ccc([N+](=O)[O-])cc1)NC(=O)OC(C)(C)C (stereo not given) (Boc-[ξPhe(4-NO2)]-Gly-NHEt) , write its reported GI50. > 100 µM (inactive)

Tell me GI50 reported for CC1=C(C(=O)Nc2cc(F)c(F)cc2F)C(c2ccc3c(c2)OCO3)C(C(=O)Nc2cc(F)c(F)cc2F)=C(C)N1 22.6 µM (inactive)

Query GI50 for CC1(C)OC(=O)C(=C2CC(c3ccccc3)c3ccccc32)C(=O)O1 (stereo not given) > 100 µM (inactive)

Return reported GI50. Input compound: CCCCn1c(C)c2c(c1C)C(=O)N(CC(O)CN1CCc3ccccc3C1)C2=O (stereo not given) 88.3 µM (inactive)

Quickly give me recorded GI50 for Nc1ccc(Cc2ccc(N)c(C(=O)O)c2)cc1C(=O)O > 100 µM (inactive)

These measurements were taken from ChEMBL document CHEMBL1201862.
